tested on: Streptococcus salivarius; assay: growth AUC relative to DMSO control (median of replicates) (fraction); higher = more growth (less inhibition), active = hit call of the paper; conditions: 20 µM; 24 h
Quantity: growth AUC
Number, no unit, nothing else.

Quick one: growth AUC for ClC(Cl)=C(c1ccc(Cl)cc1)c1ccc(Cl)cc1 ?
0.965

Quick one: growth AUC for CCSC(=O)N1CCCCCC1 ?
1.01

Quick one: growth AUC for CNC(=O)Oc1cc(C)c(SC)c(C)c1 ?
0.968

* * *

Collected growth AUC values appear next to each entry.
test system: Streptococcus salivarius; experiment: growth AUC relative to DMSO control (median of replicates) (fraction); higher = more growth (less inhibition), active = hit call of the paper; settings: 20 µM; 24 h
Number, no unit, nothing else.

OC(c1ccc(Cl)cc1)(c1ccc(Cl)cc1)C(Cl)(Cl)Cl	0.874
O=C(O)CCCOc1ccc(Cl)cc1Cl	0.969
CC(C)[C@H](C(=O)O[C@H](C#N)c1cccc(Oc2ccccc2)c1)c1ccc(Cl)cc1	0.948
CCOC(=O)CC(SP(=S)(OC)OC)C(=O)OCC (stereo not given)	0.939
[CH3][Hg][Cl]	0.848

Entry O=C(O)CNCP(=O)(O)O , system Streptococcus salivarius: what growth AUC was measured?
1.03

Entry COP(=O)(OC)O/C(C)=C/C(=O)N(C)C , system Streptococcus salivarius: what growth AUC was measured?
0.984

Entry CC#Cc1cc(C)nc(Nc2ccccc2)n1 , system Streptococcus salivarius: what growth AUC was measured?
1.01

Entry CC(=O)O.CCCCCCCCCCCCN=C(N)N , system Streptococcus salivarius: what growth AUC was measured?
1.03

Entry CCOP(=O)(OCC)O/C(=C\Cl)c1ccc(Cl)cc1Cl , system Streptococcus salivarius: what growth AUC was measured?
0.982

Entry COS(=O)(=O)[O-].Cn1c(-c2ccccc2)cc(-c2ccccc2)[n+]1C , system Streptococcus salivarius: what growth AUC was measured?
0.97

Entry COCC(=O)N(c1c(C)cccc1C)[C@H](C)C(=O)OC , system Streptococcus salivarius: what growth AUC was measured?
1.02

Entry CS/C(C)=N/OC(=O)N(C)SN(C)C(=O)O/N=C(\C)SC , system Streptococcus salivarius: what growth AUC was measured?
0.955

Entry CC(C)(C)C(O)/C(=C/c1ccc(Cl)cc1Cl)n1cncn1 (mixture of isomers) , system Streptococcus salivarius: what growth AUC was measured?
0.945

* * *

system: Streptococcus salivarius; assay: growth AUC relative to DMSO control (median of replicates) (fraction); higher = more growth (less inhibition), active = hit call of the paper; settings: 20 µM; 24 h
Quantity: growth AUC
Number, no unit, nothing else.

O=C(O)c1cc(Oc2ccc(C(F)(F)F)cc2Cl)ccc1[N+](=O)[O-]	0.987
CC(C)(C)C(O)C(Oc1ccc(-c2ccccc2)cc1)n1cncn1 (mixture of isomers)	1.01
CC(=NCc1ccc(Cl)nc1)NC#N	1
CC(C)C(C(=O)OC(C#N)c1cccc(Oc2ccccc2)c1)c1ccc(Cl)cc1 (stereo unspecified)	0.988

Quick one: growth AUC for CCCOC(=O)c1ccccc1C(=O)OCCC ?
1.01

Quick one: growth AUC for CNC(=O)O/N=C/C(C)(C)S(C)=O (stereo unspecified) ?
1.01

Quick one: growth AUC for O=P(Oc1ccccc1)(Oc1ccccc1)Oc1ccccc1 ?
0.957

Quick one: growth AUC for CCOP(=S)(NC(C)CC)Oc1cc(C)ccc1[N+](=O)[O-] (stereo unspecified) ?
0.976

Quick one: growth AUC for c1nc[n]([Sn]([CH]2CCCCC2)([CH]2CCCCC2)[CH]2CCCCC2)n1 ?
1.01

Quick one: growth AUC for CCc1nn(C)c(C(=O)NCc2ccc(C(C)(C)C)cc2)c1Cl ?
0.906

Quick one: growth AUC for ClC1=C(Cl)C2(Cl)C3C4C=CC(C4)C3C1(Cl)C2(Cl)Cl (stereo unspecified) ?
0.995
